// data source = patent US20220040297A1

# Study target: T1, CD3ε homodimer protein (human, UniProt P07766 23-126, limits assumed, sulfo-tag or biotin label in some ECL assays)
# T1 construct: also called human CD3ε homodimer protein; CD3 (CD3ε)
# T1 sequence (P07766 23-126 limits assumed): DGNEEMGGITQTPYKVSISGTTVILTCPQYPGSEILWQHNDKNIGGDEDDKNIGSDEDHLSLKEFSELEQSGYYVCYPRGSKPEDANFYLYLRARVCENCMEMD
# Test summary: SPR, CD3ε homodimer on chip;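 further: biacore SPR with antibody variants flowed as analyte over amine-coupled CD3ε homodimer on a CM chip, bound amount of each single-residue H chain variant over that of parent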
Quick reference: ratio of amounts bound vs CE115HA000 of the listed items.

- Binder: "CE115HA000 A99D (antibody, name in Kabat numbering, V domains shown) VH: QVQLVESGGGVVQPGRSLRLSCAASGFTFSNAWMHWVRQAPGKGLEWVAQIKAKSNNYATYYAESVKGRFTISRDDSKNSLYLQMNSLKTEDTAVYYCRYVHYGDYYGVDAWGQGTTVTVSS VL: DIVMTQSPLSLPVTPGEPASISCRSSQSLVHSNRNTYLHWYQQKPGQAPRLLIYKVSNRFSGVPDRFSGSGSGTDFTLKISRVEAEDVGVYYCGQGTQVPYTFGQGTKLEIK"
  ratio of amounts bound vs CE115HA000: 0.28
- Binder: "CE115HA000 N54F (antibody, name in Kabat numbering, V domains shown) VH: QVQLVESGGGVVQPGRSLRLSCAASGFTFSNAWMHWVRQAPGKGLEWVAQIKAKSNFYATYYAESVKGRFTISRDDSKNSLYLQMNSLKTEDTAVYYCRYVHYGAYYGVDAWGQGTTVTVSS VL: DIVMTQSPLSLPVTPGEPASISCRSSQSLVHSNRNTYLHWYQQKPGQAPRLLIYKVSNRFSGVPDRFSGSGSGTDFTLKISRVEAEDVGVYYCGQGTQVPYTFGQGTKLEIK"
  ratio of amounts bound vs CE115HA000: 1.12
- Binder: "CE115HA000 E61Q (antibody, name in Kabat numbering, V domains shown) VH: QVQLVESGGGVVQPGRSLRLSCAASGFTFSNAWMHWVRQAPGKGLEWVAQIKAKSNNYATYYAQSVKGRFTISRDDSKNSLYLQMNSLKTEDTAVYYCRYVHYGAYYGVDAWGQGTTVTVSS VL: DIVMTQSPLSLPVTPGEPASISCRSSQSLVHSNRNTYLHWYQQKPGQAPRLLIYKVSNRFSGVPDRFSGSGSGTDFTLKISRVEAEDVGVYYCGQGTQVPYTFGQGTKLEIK"
  ratio of amounts bound vs CE115HA000: 1.07
- Binder: "CE115HA000 H35W (antibody, name in Kabat numbering, V domains shown) VH: QVQLVESGGGVVQPGRSLRLSCAASGFTFSNAWMWWVRQAPGKGLEWVAQIKAKSNNYATYYAESVKGRFTISRDDSKNSLYLQMNSLKTEDTAVYYCRYVHYGAYYGVDAWGQGTTVTVSS VL: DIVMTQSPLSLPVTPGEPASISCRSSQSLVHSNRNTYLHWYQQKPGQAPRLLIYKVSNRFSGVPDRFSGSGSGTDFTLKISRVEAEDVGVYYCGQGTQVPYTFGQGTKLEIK"
  ratio of amounts bound vs CE115HA000: 0.22
- Binder: "CE115HA000 K52I (antibody, name in Kabat numbering, V domains shown) VH: QVQLVESGGGVVQPGRSLRLSCAASGFTFSNAWMHWVRQAPGKGLEWVAQIIAKSNNYATYYAESVKGRFTISRDDSKNSLYLQMNSLKTEDTAVYYCRYVHYGAYYGVDAWGQGTTVTVSS VL: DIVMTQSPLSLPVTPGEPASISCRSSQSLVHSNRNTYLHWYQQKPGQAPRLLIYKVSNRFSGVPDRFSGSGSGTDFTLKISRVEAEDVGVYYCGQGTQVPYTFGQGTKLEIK"
  ratio of amounts bound vs CE115HA000: 0.33
- Binder: "CE115HA000 H35G (antibody, name in Kabat numbering, V domains shown) VH: QVQLVESGGGVVQPGRSLRLSCAASGFTFSNAWMGWVRQAPGKGLEWVAQIKAKSNNYATYYAESVKGRFTISRDDSKNSLYLQMNSLKTEDTAVYYCRYVHYGAYYGVDAWGQGTTVTVSS VL: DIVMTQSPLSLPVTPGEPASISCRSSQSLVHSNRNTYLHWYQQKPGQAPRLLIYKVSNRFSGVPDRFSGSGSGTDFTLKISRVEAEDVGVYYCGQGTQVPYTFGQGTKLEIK"
  ratio of amounts bound vs CE115HA000: 0.22
- Binder: "CE115HA000 N53W (antibody, name in Kabat numbering, V domains shown) VH: QVQLVESGGGVVQPGRSLRLSCAASGFTFSNAWMHWVRQAPGKGLEWVAQIKAKSWNYATYYAESVKGRFTISRDDSKNSLYLQMNSLKTEDTAVYYCRYVHYGAYYGVDAWGQGTTVTVSS VL: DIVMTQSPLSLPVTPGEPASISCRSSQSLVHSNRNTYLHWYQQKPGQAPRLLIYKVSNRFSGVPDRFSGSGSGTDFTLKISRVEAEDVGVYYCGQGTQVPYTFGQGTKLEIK"
  ratio of amounts bound vs CE115HA000: 0.88
- Binder: "CE115HA000 K52S (antibody, name in Kabat numbering, V domains shown) VH: QVQLVESGGGVVQPGRSLRLSCAASGFTFSNAWMHWVRQAPGKGLEWVAQISAKSNNYATYYAESVKGRFTISRDDSKNSLYLQMNSLKTEDTAVYYCRYVHYGAYYGVDAWGQGTTVTVSS VL: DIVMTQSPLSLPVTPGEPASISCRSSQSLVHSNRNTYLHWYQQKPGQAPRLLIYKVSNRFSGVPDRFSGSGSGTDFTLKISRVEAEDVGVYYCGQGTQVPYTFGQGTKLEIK"
  ratio of amounts bound vs CE115HA000: 0.28
- Binder: "CE115HA000 K52H (antibody, name in Kabat numbering, V domains shown) VH: QVQLVESGGGVVQPGRSLRLSCAASGFTFSNAWMHWVRQAPGKGLEWVAQIHAKSNNYATYYAESVKGRFTISRDDSKNSLYLQMNSLKTEDTAVYYCRYVHYGAYYGVDAWGQGTTVTVSS VL: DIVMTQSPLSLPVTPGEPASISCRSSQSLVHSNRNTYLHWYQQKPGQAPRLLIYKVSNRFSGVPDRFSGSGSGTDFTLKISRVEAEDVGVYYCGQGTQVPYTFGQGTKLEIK"
  ratio of amounts bound vs CE115HA000: 0.22
- Binder: "CE115HA000 S52cG (antibody, name in Kabat numbering, V domains shown) VH: QVQLVESGGGVVQPGRSLRLSCAASGFTFSNAWMHWVRQAPGKGLEWVAQIKAKGNNYATYYAESVKGRFTISRDDSKNSLYLQMNSLKTEDTAVYYCRYVHYGAYYGVDAWGQGTTVTVSS VL: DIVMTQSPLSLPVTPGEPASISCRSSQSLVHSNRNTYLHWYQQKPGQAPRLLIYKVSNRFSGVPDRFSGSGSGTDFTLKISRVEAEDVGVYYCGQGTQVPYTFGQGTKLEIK"
  ratio of amounts bound vs CE115HA000: 0.97
